- test.protocol: inhibitors of Toxoplasma growth in IFN-γ-primed HeLa – cell-based, ME49Luc, luciferase, 72 h, dose response (AID 1259418)
- stated.conditions: T. gondii ME49Luc in IFN-y HeLa, hits give low values, -100% = high-dose IFN-γ control wells; at 19.5 µM unless noted
Among all 3,400 compounds or so, about 840 (25%) were called active. Another 11% or so got no clear call; they are omitted. Only a sample is shown. Potency and affinity values are given separately.
Parameter max activity: see the listing below.

compound	max activity
O=C(NCCc1csc(-c2ccccc2)n1)[C@H]1CCCN1C(=O)c1ccc(Br)cc1	-11% [at 0.16 µM] (inactive)
COc1ccccc1CNC(=O)CCC1N=C2c3ccccc3N=C(SCc3ccc(Cl)cc3)N2C1=O (stereo not given)	16% [at 2.6 µM] (inactive)
COc1cc(NC(=O)CN2CCC3(CC2)N=C(c2ccc(F)cc2)C(=O)N3)cc(OC)c1	16.7% [at 10 µM] (inactive)
O=C(NCc1ccccc1)Nc1ccc(-c2nc(-c3ccccc3)co2)cc1	42.6% (inactive)

Query block: Quick one: max activity for CCCCNC(=O)CCC1N=C2c3ccccc3N=C(SCC(=O)OCC)N2C1=O (stereo not given) ?
Result block: -17.8% [at 2.6 µM] (inactive)

Query block: Try the compound `Cc1nc(CCNC(=O)[C@H]2CCCN2C(=O)c2cccc(Br)c2)cs1`
Result block: 23.4% [at 0.16 µM] (inactive)

---

Parameter max activity: see the listing below.
- test.protocol: inhibitors of Toxoplasma growth in IFN-γ-primed HeLa – cell-based, ME49Luc, luciferase, 72 h, dose response (AID 1259418)
- stated.conditions: T. gondii ME49Luc in IFN-y HeLa, hits give low values, -100% = high-dose IFN-γ control wells; at 19.5 µM unless noted
Out of some 3,400 compounds screened, about 840 (25%) were called active. Another 11% or so got no clear call; they are omitted. Only a sample is shown. Entries with a potency or affinity are not part of this list.

structure	max activity
CCOc1ccc(C(=O)N2CCC3(CC2)Nc2cc(OC)ccc2-n2cccc23)cc1	8.9% (inactive)
COc1ccc(-c2nc(Nc3ccc(C(C)C)cc3)c3ccccc3n2)cc1	12% [at 5 µM] (inactive)

Query block: Quick one: max activity for `O=C1CCc2cc(S(=O)(=O)NCc3cccs3)cc3c2N1CCC3` ?
Result block: 24.5% (inactive)

Query block: Try the compound `O=C(CCn1cnc2cc(-c3noc(Cc4c[nH]c5ccccc45)n3)ccc21)N1CCCC1`
Result block: 27.3% (inactive)

Query block: Try the compound `O=C1CCc2cc(S(=O)(=O)N3CCCc4ccccc43)cc3c2N1CCC3`
Result block: -12% [at 0.35 µM] (inactive)

---

- test.protocol: inhibitors of Toxoplasma growth in IFN-γ-primed HeLa – cell-based, ME49Luc, luciferase, 72 h, dose response (AID 1259418)
- stated.conditions: T. gondii ME49Luc in IFN-y HeLa, hits give low values, -100% = high-dose IFN-γ control wells; at 19.5 µM unless noted
In all, about 3,400 compounds went through this assay and about 840 (25%) were called active. Another 11% or so got no clear call; they are omitted. The list is a sample of the results. Measured potencies and affinities stand elsewhere.
Parameter max activity: see the listing below.

Answered cases to consult:
compound	meas.value
COc1ccccc1N(Cc1nc(-c2ccc(OC(C)C)cc2)oc1C)S(=O)(=O)c1ccccc1	-5.99% [at 1.35 µM] (inactive)
COc1cc(C(=O)N2CCC3(CC2)Nc2ccc(C)c(C)c2-n2cccc23)cc(OC)c1OC	7.01% [at 0.16 µM] (inactive)
COc1ccc(-c2nc(Nc3ccc(C)cc3Cl)c3ccccc3n2)cc1	-11.8% [at 2.6 µM] (inactive)
COc1ccc(-c2nc(Cn3c(=O)c4cccnc4n(-c4ccccc4)c3=O)c(C)o2)cc1	-4.3% [at 2.6 µM] (inactive)
Clc1ccc(-c2nc(N3CCN(Cc4ccc5c(c4)OCO5)CC3)c3ccccc3n2)cc1	21.6% [at 2.6 µM] (inactive)
COc1cccc(N(Cc2nc(-c3ccc(OC(C)C)cc3)oc2C)S(=O)(=O)c2ccccc2)c1	4.32% [at 10 µM] (inactive)

Query block: Quick one: max activity for `O=C(c1ccccc1F)N1CCC2(CC1)Nc1ccc(Cl)cc1-n1cccc12` ?
Result block: -6.53% [at 0.35 µM] (inactive)

Query block: Try the compound `COC(=O)c1ccc(NC(=O)Nc2ccc(-c3nc(-c4ccc(C)cc4C)co3)cc2)cc1`
Result block: 12.9% [at 0.68 µM] (inactive)

Query block: Try the compound O=C(CCC1N=C2c3ccccc3N=C(SCc3ccc(Cl)cc3)N2C1=O)NCc1ccc2c(c1)OCO2 (centres undefined)
Result block: -24.4% [at 0.35 µM] (inactive)

Query block: Try the compound `Cc1ccc(CC(=O)Nc2ccc(-c3nc(-c4ccccc4)co3)cc2)cc1`
Result block: 9.88% [at 5 µM] (inactive)

Query block: Try the compound `Cc1ccc(NC(=O)N2CCc3nc(-c4ccccc4)sc3C2)cc1C`
Result block: -7.49% [at 2.6 µM] (inactive)

Query block: Try the compound `O=C(c1ccc(F)cc1)N1CCC2(CC1)Nc1ccc(Cl)cc1-n1cccc12`
Result block: 13.8% [at 0.68 µM] (inactive)

Query block: Try the compound `COc1ccc(-c2nc(Nc3cccc(Cl)c3)c3ccccc3n2)cc1`
Result block: 22.1% [at 0.35 µM] (inactive)

Query block: Try the compound O=C(CC1N=C2c3ccccc3N=C(SCc3cccc(Cl)c3)N2C1=O)NC1CCCCC1 (centres undefined)
Result block: -15.8% [at 0.16 µM] (inactive)

Query block: Try the compound `O=C1CCc2cc(S(=O)(=O)N3CCN(c4ccc(F)cc4)CC3)cc3c2N1CCC3`
Result block: 10.7% [at 2.6 µM] (inactive)

Query block: Try the compound `COc1ccc(OCC(=O)N2CCC3(CC2)Nc2cc(F)ccc2-n2cccc23)cc1`
Result block: 4.86% [at 10 µM] (inactive)
